Reported melting point values for the following compounds.

| compound | melting point |
| --- | --- |
| COc1cc2ccn(C)c(=O)c2cc1OCc1ccccc1 [14a] | 132 to 134 °C |
| COc1ccc2c(=O)n(C)ccc2c1OCc1ccccc1 [15a] | 125 to 127 °C |

input: Given the compound COc1cc2c(=O)n(C)ccc2cc1OCc1ccc(C)cc1 [7f] , write its reported melting point.
output: 120 to 122 °C

---

# assay.system: MT2 (Homo sapiens, UniProt P49286)
# Sequence (P49286 whole entry): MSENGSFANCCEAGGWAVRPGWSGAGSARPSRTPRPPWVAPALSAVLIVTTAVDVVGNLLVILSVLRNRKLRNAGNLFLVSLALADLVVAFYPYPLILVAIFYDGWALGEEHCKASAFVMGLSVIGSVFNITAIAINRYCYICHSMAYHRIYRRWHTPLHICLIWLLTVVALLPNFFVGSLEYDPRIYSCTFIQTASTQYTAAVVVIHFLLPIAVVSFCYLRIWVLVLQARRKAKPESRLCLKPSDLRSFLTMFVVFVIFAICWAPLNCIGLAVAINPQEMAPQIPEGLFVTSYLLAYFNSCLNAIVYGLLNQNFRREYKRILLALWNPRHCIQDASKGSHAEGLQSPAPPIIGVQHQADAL
# assay.method.text: biochemical
quantity.name: IC50 (µM)

| compound | IC50 [µM] |
| --- | --- |
| COc1cc2c(=O)n(C)ccc2cc1OCc1ccc(C)cc1 | 1.1 |
| COc1cccc(COc2c(OC)ccc3c(=O)n(C)ccc23)c1 [15b] | 0.0055 |

1 = COc1ccc2c(=O)n(C)ccc2c1OCc1ccccc1 [15a]
2 = COc1cc2c(=O)n(C)ccc2cc1OCc1cc(C)cc(C)c1
input: Which record shows the lower IC50: the first, 1 , or the second, 2 ? Identify your selection by its label.
output: 1
(1: 1.2 µM, 2: 3.47 µM)

a = COc1cc(COc2cc3ccn(C)c(=O)c3cc2OC)cc(OC)c1
b = COc1ccccc1COc1cc2ccn(C)c(=O)c2cc1OC
input: Which record shows the lower IC50: the first, a , or the second, b ? Identify your selection by its label.
output: a

1 = COc1cc2ccn(C)c(=O)c2cc1OCc1ccccc1 [14a]
2 = COc1cccc(COc2cc3c(=O)n(C)ccc3cc2OC)c1 [14b]
3 = COc1cccc(COc2cc3ccn(C)c(=O)c3cc2OC)c1
input: With regard to IC50, arrange the entries in ascending order, please. Field: ranking. Enter the labels in the order requested.
output: 3, 2, 1

A = COc1cc(COc2cc3c(=O)n(C)ccc3cc2OC)cc(OC)c1 [14c]
B = COc1ccc(COc2cc3ccn(C)c(=O)c3cc2OC)cc1
input: Which record shows the lower IC50: the first, A , or the second, B ? Identify your selection by its label.
output: B
(B: 1.12 µM, A: 18.2 µM)

Data credit: paper PMC4257560
